Tested on: Liver
Experiment: Drug uptake in Sprague-Dawley rat liver assessed per gram of liver at 10 mg/kg, po after 72 hrs by HPLC-UV analysis
Type: ADME, organism-based
Conditions: in vivo
reported property: Drug uptake (µg/g)
The response must be a number in µg/g with no trailing unit.

Solved entries:
In [3]: df
Out[3]:
                                   compound  result
0  CCCCCCCCCCCC(c1ccc(Cl)cc1)c1c(O)c2ccccc2oc1=O (stereo not drawn)       1
1  CCC(c1ccccc1)c1c(O)c2ccccc2oc1=O (stereo not drawn)     1.7

Return reported Drug uptake; argument: CCCCCCCCCCCC(c1ccc(Cl)cc1Cl)c1c(O)c2ccccc2oc1=O (stereo not drawn)
0.7
